test system: EPHB2; conditions: concentration: 1 μM, replicates: in singlicate; n = 1;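 further: KINOMEscan kinase panel screen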
# %Inh annotations
Kindly answer with a numeric value in %, unit omitted.

Please review the entries below; each comes with its answer.
[
  {
    "molecule": "C[C@@H](Oc1cc(-n2cnc3ccc(NC(=O)NC(C)(C)C)cc32)sc1C(N)=O)c1ccccc1Cl",
    "reported_value": 15
  },
  {
    "molecule": "COc1ccc(Nc2nccc(N3CCC(NC(=O)Nc4cccc(C(C)=O)c4)C3)n2)cc1 (stereo not drawn)",
    "reported_value": 0
  },
  {
    "molecule": "Nc1nccc(-c2c(-c3ccc(F)cc3)ncn2C2CCN(CC(F)(F)F)CC2)n1",
    "reported_value": 14
  },
  {
    "molecule": "N#Cc1c(N2CCOCC2)sc(-c2ccn[nH]2)c1-c1ccc(Cl)cc1",
    "reported_value": 0
  },
  {
    "molecule": "O=C(NOCC1CC1)c1ccc(F)c(F)c1Nc1ccc(I)cc1Cl",
    "reported_value": 0
  }
]

Provide the documented %Inh with EPHB2 as the system for `O=c1cc(N2CCOCC2)nc2n(Cc3cccc(Cl)c3Cl)c(C3CC3)nn12`
0

Provide the documented %Inh with EPHB2 as the system for `Fc1ccc(-c2nn3c(OCC(F)(F)F)cccc3c2-c2ccncc2)cc1`
0

Provide the documented %Inh with EPHB2 as the system for Cc1c(Cn2c(C)nn3c(=O)cc(N4CCOC(C)C4)nc23)cccc1C(F)(F)F (stereo not drawn)
46

Provide the documented %Inh with EPHB2 as the system for `c1ccc(-c2cc(-c3c[nH]nc3-c3ccccn3)ccn2)cc1`
0

* * *

test system: TLK1; conditions: concentration: 1 μM, replicates: in singlicate; n = 1
quantity: %Inh

[
  {
    "smiles_record": "O=C(c1ccc(-c2cc(-c3c[nH]nc3-c3ccccn3)ccn2)cc1)N1CCOCC1",
    "%Inh": "0%"
  },
  {
    "smiles_record": "Fc1ccc(-c2ncn(CCCN3CCOCC3)c2-c2cccnc2)cc1",
    "%Inh": "0%"
  },
  {
    "smiles_record": "Cc1cccc(Cn2ccn3c(=O)cc(N4CCOCC4)nc23)c1",
    "%Inh": "16%"
  }
]

API: the following record is the query input.
Provide the documented %Inh with TLK1 as the system for `Cn1ccc2ncnc(Oc3ccc(NC(=O)Nc4ccncc4)c(Cl)c3)c21`
0%

* * *

test system: PIP5K2C; construct: gene PIP4K2C; settings: concentration: 1 μM, replicates: in singlicate; n = 1
quantity: %Inh (%)
Kindly answer with a numeric value in %, unit omitted.

Please review the entries below; each comes with its answer.
[
  {
    "molecule": "c1ccc(-c2cc(-c3c[nH]nc3-c3ccccn3)ccn2)cc1",
    "tgt": "PIP5K2C",
    "%Inh [%]": 30
  },
  {
    "molecule": "NS(=O)(=O)c1cccc(-c2ccc3nccc(-c4cccc(S(N)(=O)=O)c4)c3c2)c1",
    "tgt": "PIP5K2C",
    "%Inh [%]": 41
  },
  {
    "molecule": "CCCCCc1nc2c(N)ncnc2n1CCCCC",
    "tgt": "PIP5K2C",
    "%Inh [%]": 0
  },
  {
    "molecule": "Fc1ccc(-c2nn3c(OCC(F)(F)F)cccc3c2-c2ccncc2)cc1",
    "tgt": "PIP5K2C",
    "%Inh [%]": 32
  },
  {
    "molecule": "COc1ccc(Nc2nccc(N3CCC(NC(=O)Nc4cc(C)ccc4C)C3)n2)cc1 (stereo not drawn)",
    "tgt": "PIP5K2C",
    "%Inh [%]": 9
  }
]

Look up %Inh for this molecule: Cc1nnc(-c2ccc3ncc(-c4ccc(S(C)=O)cc4)n3c2)o1 (stereo not drawn)
0
